Examples of compounds with documented melting point follow.

[
  {
    "smiles-notation": "Nc1sc(-c2ccc(Cl)c(Cl)c2)c(CN(C2CCCCC2)C2CCCCC2)c1C(=O)c1ccc(Cl)cc1",
    "melting point": "222 to 225 °C"
  },
  {
    "smiles-notation": "CC(C)CN(Cc1c(-c2ccccc2)sc(N)c1C(=O)c1ccc(Cl)cc1)CC(C)C",
    "melting point": "127 to 133 °C"
  },
  {
    "smiles-notation": "Nc1sc(-c2ccc(Cl)s2)c(CN(C2CCCCC2)C2CCCCC2)c1C(=O)c1ccc(Cl)cc1",
    "melting point": "195 to 197 °C"
  },
  {
    "smiles-notation": "N#Cc1ccc(-c2sc(N)c(C(=O)c3ccc(Cl)cc3)c2CN(C2CCCCC2)C2CCCCC2)cc1",
    "melting point": "196 to 200 °C"
  }
]

Prompt: Record request: melting point value, item `CCCN(Cc1c(-c2ccccc2)sc(N)c1C(=O)c1ccc(Cl)cc1)C1CCCCC1`
Completion: 162 to 165 °C

Prompt: Record request: melting point value, item `COC(=O)CN(C)Cc1c(-c2ccccc2)sc(N)c1C(=O)c1ccc(Cl)cc1`
Completion: 156.5 to 160 °C

Prompt: Record request: melting point value, item `Nc1sc(-c2ccc(F)cc2)c(CN(C2CCCCC2)C2CCCCC2)c1C(=O)c1ccc(Cl)cc1`
Completion: 222 to 224 °C

Prompt: Record request: melting point value, item `Nc1sc(-c2ccccn2)c(CN(C2CCCCC2)C2CCCCC2)c1C(=O)c1ccc(Cl)cc1`
Completion: 192 to 194 °C

Prompt: Record request: melting point value, item `CN(Cc1c(-c2ccccc2)sc(N)c1C(=O)c1ccc(Cl)cc1)c1ccc(Cl)c(Cl)c1`
Completion: 80 to 84 °C

Prompt: Record request: melting point value, item `Cc1ccc(N(C)Cc2c(-c3ccccc3)sc(N)c2C(=O)c2ccc(Cl)cc2)cc1`
Completion: 173 to 176 °C

Prompt: Record request: melting point value, item `CC(C)Oc1ccc(-c2sc(N)c(C(=O)c3ccc(Cl)cc3)c2CN(C2CCCCC2)C2CCCCC2)cc1`
Completion: 175 to 177 °C

Prompt: Record request: melting point value, item `COc1ccc(N(C)Cc2c(-c3ccccc3)sc(N)c2C(=O)c2ccc(Cl)cc2)cc1`
Completion: 131.5 to 136 °C

Prompt: Record request: melting point value, item `Nc1sc(-c2ccccc2)c(CNC23CC4CC(CC(C4)C2)C3)c1C(=O)c1ccc(Cl)cc1`
Completion: 135 to 140 °C

Prompt: Record request: melting point value, item `COCCN(CCOC)Cc1c(-c2ccccc2)sc(N)c1C(=O)c1ccc(Cl)cc1`
Completion: 140 to 145 °C
